Target: Hypoxia-inducible factor 1-alpha (Homo sapiens) (UniProt Q16665)
Sequence (Q16665 whole entry, looked up): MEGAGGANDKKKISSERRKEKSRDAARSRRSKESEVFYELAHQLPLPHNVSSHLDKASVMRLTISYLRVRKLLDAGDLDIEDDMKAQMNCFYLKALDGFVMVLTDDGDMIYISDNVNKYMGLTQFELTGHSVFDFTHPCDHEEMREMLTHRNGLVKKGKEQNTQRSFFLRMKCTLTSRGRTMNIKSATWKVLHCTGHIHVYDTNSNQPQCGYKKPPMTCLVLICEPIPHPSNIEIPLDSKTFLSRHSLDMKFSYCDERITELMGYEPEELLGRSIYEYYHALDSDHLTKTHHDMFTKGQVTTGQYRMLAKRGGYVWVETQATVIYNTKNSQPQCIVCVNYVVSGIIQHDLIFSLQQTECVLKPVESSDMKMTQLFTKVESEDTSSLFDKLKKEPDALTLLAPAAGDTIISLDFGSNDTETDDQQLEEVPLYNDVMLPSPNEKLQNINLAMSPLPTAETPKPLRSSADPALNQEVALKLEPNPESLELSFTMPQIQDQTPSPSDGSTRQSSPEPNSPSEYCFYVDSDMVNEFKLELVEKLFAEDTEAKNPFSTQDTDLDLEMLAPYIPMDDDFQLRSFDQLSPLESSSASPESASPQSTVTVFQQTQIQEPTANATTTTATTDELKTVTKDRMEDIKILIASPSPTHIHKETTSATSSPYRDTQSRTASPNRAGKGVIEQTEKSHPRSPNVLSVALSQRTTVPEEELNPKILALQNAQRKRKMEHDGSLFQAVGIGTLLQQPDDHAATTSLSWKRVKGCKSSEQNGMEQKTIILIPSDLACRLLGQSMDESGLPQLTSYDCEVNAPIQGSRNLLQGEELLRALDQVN
Assay: ATG_HIF1a_CIS: Attagene CIS-FACTORIAL HepG2 Assay for human Hypoxia Inducible Factor 1 (HIF1A) (AID 2282951)
Conditions: HepG2 Attagene cis-factorial HIF1a reporter transcription; actives raise or lower the signal
Experimental: ATG_CIS is a cell-based, multiplexed-readout assay that uses HepG2, a human liver cell line, with measurements taken at 24 hours after chemical dosing in a 24-well plate.ATG_HIF1a_CIS is one of 52 assay component(s) measured or calculated from the ATG_CIS assay. […] This assay endpoint, ATG_HIF1a_CIS, was analyzed with bidirectional fitting relative to DMSO as the negative control and baseline of activity. […]
Active and inactive are the calls of the source. Rule for the calls: active = hit-call score of the fitted dose curve at least 0.9, where 1 is the maximum; inactive = score below 0.9.
Select the correct class. Options are 1.0 for active, 0.0 for inactive and nothing else.

Completed entries (count: 5):
INSERT INTO results (compound, systemundertest, assignedclass) VALUES
  ('CCOC(=O)c1ccc(C2CCC(NC[C@H](O)COc3ccc(O)c(NS(C)(=O)=O)c3)CC2)cc1 (stereo not given in full)', 'Hypoxia-inducible factor 1-alpha (Homo sapiens) (UniProt Q16665)', 1.0),
  ('CCC(C)(C)C(=O)O[C@H]1C[C@@H](C)C=C2C=C[C@H](C)[C@H](CC[C@@H]3C[C@@H](O)CC(=O)O3)[C@H]21', 'Hypoxia-inducible factor 1-alpha (Homo sapiens) (UniProt Q16665)', 0.0),
  ('CC(C)=CCCC(C)=CC=O', 'Hypoxia-inducible factor 1-alpha (Homo sapiens) (UniProt Q16665)', 1.0),
  ('CCCCC(CC)COC(=O)c1ccc(C(=O)OCC(CC)CCCC)cc1 (stereo not given)', 'Hypoxia-inducible factor 1-alpha (Homo sapiens) (UniProt Q16665)', 0.0),
  ('Nc1cccc(N)c1', 'Hypoxia-inducible factor 1-alpha (Homo sapiens) (UniProt Q16665)', 0.0);

INPUT: Check the results log: what was the call for CC/C(=C\C(=N/O)C(N)=O)C(C)[N+](=O)[O-] (stereo not given) ?
OUTPUT: 0.0

INPUT: Check the results log: what was the call for CNCc1ccc(NC(=O)c2c[nH]c3c2C(=O)CCC3)cc1 ?
OUTPUT: 0.0

INPUT: Check the results log: what was the call for CC(C)=CCCC(C)CCO (stereo not given) ?
OUTPUT: 1.0

INPUT: Check the results log: what was the call for C1N2CN3CN1CN(C2)C3 ?
OUTPUT: 0.0
